System: VEGF-165 (Homo sapiens), P15692-4
Sequence: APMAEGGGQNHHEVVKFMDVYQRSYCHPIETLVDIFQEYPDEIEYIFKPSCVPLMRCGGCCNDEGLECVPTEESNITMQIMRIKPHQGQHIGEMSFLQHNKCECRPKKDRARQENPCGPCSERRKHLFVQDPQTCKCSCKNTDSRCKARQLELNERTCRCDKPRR
Experiment Notes: SPR
Settings: Ds at n; PBS + 0.05% NP-40, 25 C; retention 94%
Parameter: pKd
Give bare numbers, as −log10 of the molar value.

pKd reading for TGTCTAAGTAAGGTGGGNTTGGCGGGGNTGTCGGA [Ds-09-1-ADsDs] : 9.00

---

Assign binding signal to each entry below.
Test system: VEGF-165 (Homo sapiens), P15692-4
Sequence: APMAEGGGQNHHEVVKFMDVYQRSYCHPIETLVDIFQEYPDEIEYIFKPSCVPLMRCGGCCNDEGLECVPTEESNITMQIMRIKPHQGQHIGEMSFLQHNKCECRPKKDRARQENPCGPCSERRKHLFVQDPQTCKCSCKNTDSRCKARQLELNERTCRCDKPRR
Experiment Notes: SPR
Settings: Ds at n; 10 nM VEGF-165, 930 s
Answers are plain numbers, in bound ratio.

Note to self: binding signal of ATCAGTCCACATACGCGGGGGTGTTGAAGGGTTAGTCGGANGTAGTGTGTACAGAG [VG02bDs-57] with VEGF-165 (Homo sapiens), P15692-4 was 0.39

Note to self: binding signal of ATCAGTCCACGAGATGGATGGTAGTGGCCGNACGGGGGGGNTGGAGANGCTGGCTG [VG08Ds-57] with VEGF-165 (Homo sapiens), P15692-4 was 0.21

Provide the reported binding signal of each entry below, same order.
1. ATCAGTCCACAAAGTGCTGGGTCCGNATGGCGGGGGGTTAGGCCTCTTTGGGGCGG [VG01Ds-57]
2. ATCAGTCCACATCGAGCGTGAGGTCCGAAAGGCGACTCTTNTAACATCAAGTAATG [VG02aDs-57]

1: 0.2; 2: 0.15

---

Tested on: VEGF-165 (Homo sapiens), P15692-4
Sequence: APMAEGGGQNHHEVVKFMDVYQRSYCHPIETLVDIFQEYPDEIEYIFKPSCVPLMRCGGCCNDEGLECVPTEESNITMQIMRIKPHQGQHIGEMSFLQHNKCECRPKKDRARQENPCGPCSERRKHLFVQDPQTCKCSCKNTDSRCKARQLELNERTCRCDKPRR
Experiment Notes: SPR
Settings: Ds at n; PBS + 0.05% NP-40, 25 C; retention 92%
Parameter: pKd
Give bare numbers, as −log10 of the molar value.

Note to self: pKd of TGTCTAAGTANGGTGGGNTTGGCGGGGNTGTCGGA [Ds-09-1-DsDsDs] with VEGF-165 (Homo sapiens), P15692-4 was 8.40

---

Tested on: VEGF-165 (Homo sapiens), P15692-4
Sequence: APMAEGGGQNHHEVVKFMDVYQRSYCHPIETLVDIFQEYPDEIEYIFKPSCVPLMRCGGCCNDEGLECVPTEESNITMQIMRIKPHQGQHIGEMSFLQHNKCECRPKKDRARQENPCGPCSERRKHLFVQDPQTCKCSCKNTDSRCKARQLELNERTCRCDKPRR
Experiment Notes: SPR
Settings: Ds at n; Bound 0.02; 25 C
Parameter: Kd
# number then unit; no other words

Note to self: Kd of GTCCGAAGGGGCNTGCAGTGANCCCGAATGGGTCCG [VGd1-2Ds-36] with VEGF-165 (Homo sapiens), P15692-4 was 4.6 nM

Where do these numbers come from? They come from patent US20150119254.
